# System: L1210 leukemia ip in BDF1 mice, survival T/C
# ASSAY_INFO: NCI In Vivo Anticancer Drug Screen. Data for tumor model L1210 Leukemia (intraperitoneal) in B6D2F1 (BDF1) mice
# TEST_CONDITIONS: endpoint: mean survival time; dose: 100.0 mg/kg/injection; schedule: Q01DX009 (ip); vehicle: saline with Tween-80; higher = longer survival
Inconclusive results and toxic doses are left out.
Catalogue of T/C values

Inquiry: Give measured T/C for CC/C(=C(\CC)c1ccc(OC)cc1)c1ccc(OC)cc1 (L1210 leukemia ip in BDF1 mice, survival T/C).
Reply text: 89 % of control

* * *

# Test system: L1210 leukemia ip in BDF1 mice, survival T/C
# ASSAY_INFO: NCI In Vivo Anticancer Drug Screen. Data for tumor model L1210 Leukemia (intraperitoneal) in B6D2F1 (BDF1) mice
# TEST_CONDITIONS: endpoint: mean survival time; dose: 50.0 mg/kg/injection; schedule: Q04DX003 (ip); vehicle: saline with Tween-80; higher = longer survival
Toxic doses and inconclusive results are not listed.
MEASUREMENT_TYPE: T/C

{"MOLECULE": "CCOC(=O)c1c[nH]c2cc([N+](=O)[O-])ccc2c1=O", "T/C": "86 % of control"}
{"MOLECULE": "NC(=O)N/N=C/c1cccs1", "T/C": "103 % of control"}
{"MOLECULE": "N#CC(Nc1ccccc1)C1CC1c1ccccc1 (stereo not given)", "T/C": "101 % of control"}
{"MOLECULE": "CCCSc1nccc2n[nH]nc12", "T/C": "98 % of control"}

Now consider the entry below.
Inquiry: Please supply the value of reported T/C for the item CCCCCC/C=C/C1CC(=O)OC1=O (stereo not given)
Reply text: 98 % of control

* * *

# Test system: L1210 leukemia ip in BDF1 mice, survival T/C
# ASSAY_INFO: NCI In Vivo Anticancer Drug Screen. Data for tumor model L1210 Leukemia (intraperitoneal) in B6D2F1 (BDF1) mice
# TEST_CONDITIONS: endpoint: mean survival time; dose: 400.0 mg/kg/injection; schedule: Q01DX009 (ip); vehicle: saline with Tween-80; higher = longer survival
# Procedure: The antitumor activity of compounds was measured in mice bearing transplantable tumors. Survival or tumor size were measured and the results are expressed as the measurement made in the treated group (T) divided by the measurement made in the vehicle treated control group (C). The tumor model used in this assay is L1210 Leukemia (intraperitoneal) in B6D2F1 (BDF1) mice
Toxic doses and inconclusive results are not listed.
Reported T/C values for a set of compounds

{"COMPOUND": "Cc1cc([N+](=O)[O-])ccc1NC(=O)Nc1ccccc1F", "T/C": "96 % of control"}
{"COMPOUND": "O=S(NOCCCCONS(=O)c1ccccc1)c1ccccc1 (configuration not stated)", "T/C": "90 % of control"}
{"COMPOUND": "CC(C)OC(=O)Nc1ccc(Cl)cc1", "T/C": "94 % of control"}
{"COMPOUND": "COc1cc(OC)c(OC)cc1/C=C/c1ccc2ccccc2n1", "T/C": "98 % of control"}
{"COMPOUND": "Cc1ccc(C(=O)NCCCOc2ccc([N+](=O)[O-])cc2Cl)cc1S(=O)(=O)F", "T/C": "98 % of control"}
{"COMPOUND": "Cc1ccc(CNc2ccc(F)cc2)cc1", "T/C": "97 % of control"}
{"COMPOUND": "Cc1ccc(Cl)cc1NC(=O)Nc1cc(C(C)C)ccc1C", "T/C": "86 % of control"}
{"COMPOUND": "CN(C)S(=O)(=O)c1ccc(NC(=O)CCl)cc1", "T/C": "100 % of control"}
{"COMPOUND": "CC(C)(C)Cc1cc(O)c2c(c1O)C(=O)c1ccccc1C2=O", "T/C": "96 % of control"}
{"COMPOUND": "CCOc1ccc(/C=N/NS(=O)(=O)c2ccccc2)cc1OC", "T/C": "89 % of control"}

Inquiry: # return recorded T/C for input COC1(OC)C2(Cl)CC(c3ccc(Cl)cc3)C1(Cl)C(Cl)=C2Cl (configuration not stated)
Reply text: 100 % of control

Inquiry: Supply reported T/C belonging to this compound: CCNc1nc(Cl)nc(N(CC)CC)n1
Reply text: 89 % of control

* * *

# Tested on: L1210 leukemia ip in BDF1 mice, survival T/C
# ASSAY_INFO: NCI In Vivo Anticancer Drug Screen. Data for tumor model L1210 Leukemia (intraperitoneal) in B6D2F1 (BDF1) mice
# TEST_CONDITIONS: endpoint: mean survival time; dose: 50.0 mg/kg/injection; schedule: Q04DX002 (ip); vehicle: Klucel (hydroxypropylcellulose) (HPC); higher = longer survival
Inconclusive results and toxic doses are left out.
Catalogue of T/C values

See these solved cases before continuing.
{"LINE_NOTATION": "Nc1nc(N)nc(N)n1", "MEASUREMENT_TYPE": "T/C", "VALUE_OBSERVED": "94 % of control"}
{"LINE_NOTATION": "CCCN1CCCN(CCC)C1=O", "MEASUREMENT_TYPE": "T/C", "VALUE_OBSERVED": "102 % of control"}
{"LINE_NOTATION": "Cc1ccc(S(=O)(=O)OC(c2ccccc2)c2ccccc2)cc1", "MEASUREMENT_TYPE": "T/C", "VALUE_OBSERVED": "97 % of control"}
{"LINE_NOTATION": "CCCCCCSc1nccnc1C", "MEASUREMENT_TYPE": "T/C", "VALUE_OBSERVED": "92 % of control"}
{"LINE_NOTATION": "COc1cc(/C=N/N)cc(OC)c1OC", "MEASUREMENT_TYPE": "T/C", "VALUE_OBSERVED": "117 % of control"}

Inquiry: Respond only with T/C recorded for CC(=O)[C@@]1(O)CC[C@H]2[C@@H]3C[C@H](C)C4=CC(=O)CC[C@]4(C)[C@H]3[C@@H](O)C[C@@]21C
Reply text: 112 % of control

Inquiry: Supply recorded T/C for ClCC1=NCCN1 here.
Reply text: 97 % of control

Inquiry: Give the measured T/C for CCCCCCCCCCC(=O)N1CCCCCC1
Reply text: 100 % of control

* * *

Listing of entries alongside the reported T/C.
# Test system: L1210 leukemia ip in BDF1 mice, survival T/C
# ASSAY_INFO: NCI In Vivo Anticancer Drug Screen. Data for tumor model L1210 Leukemia (intraperitoneal) in B6D2F1 (BDF1) mice
# TEST_CONDITIONS: endpoint: mean survival time; dose: 200.0 mg/kg/injection; schedule: Q01DX009 (ip); vehicle: Klucel (hydroxypropylcellulose) (HPC); higher = longer survival
Inconclusive results and toxic doses are left out.

{"COMPOUND": "O=C(O)C1C2CC(C(Br)C2Br)C1C(=O)O (configuration not stated)", "TESTED_ON": "L1210 leukemia ip in BDF1 mice, survival T/C", "VALUE_OBSERVED": "97 % of control"}
{"COMPOUND": "C/C(=C\\c1ccccc1)C(=O)c1ccc(-c2ccccc2)cc1", "TESTED_ON": "L1210 leukemia ip in BDF1 mice, survival T/C", "VALUE_OBSERVED": "93 % of control"}
{"COMPOUND": "O=C1CC(O)(c2ccccc2)C2(c3ccccc3)OC2O1 (configuration not stated)", "TESTED_ON": "L1210 leukemia ip in BDF1 mice, survival T/C", "VALUE_OBSERVED": "93 % of control"}
{"COMPOUND": "CC(=O)Oc1ccccc1C(C)=O", "TESTED_ON": "L1210 leukemia ip in BDF1 mice, survival T/C", "VALUE_OBSERVED": "97 % of control"}
{"COMPOUND": "CNC(=O)Nc1cc(C)ccc1OC", "TESTED_ON": "L1210 leukemia ip in BDF1 mice, survival T/C", "VALUE_OBSERVED": "104 % of control"}

Inquiry: Complete the entry with T/C for COc1cc(N=CN(C)C)cc(OC)c1OC
Reply text: 103 % of control

Inquiry: Input Cc1ccc2c(c1)SN(CN1C(=O)c3ccccc3C1=O)N2 , output reported T/C.
Reply text: 93 % of control

Inquiry: Provide measured T/C value, entry: O=c1c2ccccc2nc(-c2ccccc2)n1/N=C/c1cccnc1
Reply text: 98 % of control

* * *

# System: L1210 leukemia ip in BDF1 mice, survival T/C
# ASSAY_INFO: NCI In Vivo Anticancer Drug Screen. Data for tumor model L1210 Leukemia (intraperitoneal) in B6D2F1 (BDF1) mice
# TEST_CONDITIONS: endpoint: mean survival time; dose: 400.0 mg/kg/injection; schedule: Q01DX009 (ip); vehicle: saline with Tween-80; higher = longer survival
# Procedure: The antitumor activity of compounds was measured in mice bearing transplantable tumors. Survival or tumor size were measured and the results are expressed as the measurement made in the treated group (T) divided by the measurement made in the vehicle treated control group (C). The tumor model used in this assay is L1210 Leukemia (intraperitoneal) in B6D2F1 (BDF1) mice
Toxic doses and inconclusive results are not listed.
We begin with a simple list: items and their reported T/C.

{"MOLECULE": "O=C(O)Cn1c(C(F)(F)F)nc2nc(Cl)c(Cl)nc21", "T/C": "92 % of control"}

Inquiry: Respond only with T/C recorded for O=C1OC(=O)N2N=CC=CC12 (stereo not drawn)
Reply text: 96 % of control

Inquiry: Using known records, supply T/C for CCOC(=O)C1Oc2ccccc2O1
Reply text: 101 % of control

Inquiry: Note down T/C recorded for O=C(Nc1ccccc1C(F)(F)F)c1ccc(Cl)cc1Cl
Reply text: 89 % of control

Inquiry: Could you please provide reported T/C for CNC(=O)Oc1cccc(NC(=O)OC(C)C)c1 ? Thanks!
Reply text: 92 % of control

Inquiry: Kindly indicate its recorded T/C. Item: C=CCCCCCCCCC(=O)Cl
Reply text: 98 % of control

Inquiry: Write down T/C measured for item CCC1(CCC#N)CCC(N)=CC1=O (stereo not drawn)
Reply text: 97 % of control

Inquiry: Find the measured T/C of O=C(c1ccccc1)C(O)c1ccccc1 (stereo not drawn) and report it.
Reply text: 100 % of control
